target: VLA-4 (Homo sapiens, UniProt P05556+P13612); construct: endogenous in cells; experiment: VLA-4 direct binding assay (VCAM-IgG alkaline phosphatase conjugate binding to Jurkat cells); conditions: Table 1, Structure-Activity; assay and unit inferred; read-out: Act
Sequence (P13612 34-1032): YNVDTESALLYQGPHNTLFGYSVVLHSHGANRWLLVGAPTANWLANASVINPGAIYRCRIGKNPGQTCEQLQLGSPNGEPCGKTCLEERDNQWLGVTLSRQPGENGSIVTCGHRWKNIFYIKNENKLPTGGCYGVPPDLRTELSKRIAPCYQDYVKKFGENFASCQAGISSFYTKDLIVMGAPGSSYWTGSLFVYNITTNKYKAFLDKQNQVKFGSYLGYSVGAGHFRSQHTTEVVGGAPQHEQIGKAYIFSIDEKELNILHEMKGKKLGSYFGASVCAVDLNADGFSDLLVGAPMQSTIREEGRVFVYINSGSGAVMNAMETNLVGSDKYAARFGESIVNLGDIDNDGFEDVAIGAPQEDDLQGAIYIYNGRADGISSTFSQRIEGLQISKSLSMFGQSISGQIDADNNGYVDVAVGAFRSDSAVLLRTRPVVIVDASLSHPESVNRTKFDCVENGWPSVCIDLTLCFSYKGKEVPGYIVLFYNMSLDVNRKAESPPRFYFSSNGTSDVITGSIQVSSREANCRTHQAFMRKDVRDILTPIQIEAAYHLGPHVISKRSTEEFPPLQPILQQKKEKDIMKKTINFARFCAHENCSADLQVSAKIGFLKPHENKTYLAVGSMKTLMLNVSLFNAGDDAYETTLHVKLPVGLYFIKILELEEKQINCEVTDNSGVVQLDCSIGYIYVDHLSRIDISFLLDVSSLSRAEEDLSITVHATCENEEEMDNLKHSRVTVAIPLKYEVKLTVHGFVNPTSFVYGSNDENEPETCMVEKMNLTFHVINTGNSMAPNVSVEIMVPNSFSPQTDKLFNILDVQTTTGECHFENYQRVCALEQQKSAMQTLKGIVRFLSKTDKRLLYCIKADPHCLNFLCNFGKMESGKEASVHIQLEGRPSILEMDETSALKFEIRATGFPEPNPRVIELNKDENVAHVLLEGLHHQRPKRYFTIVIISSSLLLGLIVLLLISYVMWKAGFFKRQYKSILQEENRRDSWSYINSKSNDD
Sequence (P05556 21-798): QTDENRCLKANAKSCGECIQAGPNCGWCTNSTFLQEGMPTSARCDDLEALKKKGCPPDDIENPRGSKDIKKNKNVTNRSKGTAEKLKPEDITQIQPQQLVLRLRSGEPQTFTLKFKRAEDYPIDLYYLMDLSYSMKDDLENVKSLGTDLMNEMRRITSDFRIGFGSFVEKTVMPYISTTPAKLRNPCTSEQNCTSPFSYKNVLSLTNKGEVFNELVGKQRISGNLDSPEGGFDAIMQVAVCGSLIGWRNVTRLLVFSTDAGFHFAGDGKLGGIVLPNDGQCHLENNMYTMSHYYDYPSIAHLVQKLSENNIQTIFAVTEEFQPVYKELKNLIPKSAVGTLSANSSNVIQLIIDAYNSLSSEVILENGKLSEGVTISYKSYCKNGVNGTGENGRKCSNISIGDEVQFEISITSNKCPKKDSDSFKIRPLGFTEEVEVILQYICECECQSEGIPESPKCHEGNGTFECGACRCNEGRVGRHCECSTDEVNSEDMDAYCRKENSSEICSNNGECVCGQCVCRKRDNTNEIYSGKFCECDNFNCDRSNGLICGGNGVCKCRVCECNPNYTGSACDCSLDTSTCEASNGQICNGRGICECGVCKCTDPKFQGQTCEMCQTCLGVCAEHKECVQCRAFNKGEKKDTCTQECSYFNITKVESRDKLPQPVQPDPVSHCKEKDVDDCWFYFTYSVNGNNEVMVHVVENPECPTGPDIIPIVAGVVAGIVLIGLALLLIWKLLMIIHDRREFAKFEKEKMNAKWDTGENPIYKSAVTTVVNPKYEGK
pIC50: −log10 of the molar value.

# Compound, Assayed system, pIC50
measured = [
    ("COc1ccc([C@H](CC(=O)O)NC(=O)C(O)CC(=O)Nc2ccc(NC(=O)Nc3ccccc3C)cc2)cc1OC (stereo partly drawn)", "VLA-4 (Homo sapiens, UniProt P05556+P13612)", 6.39),
    ("Cc1ccccc1NC(=O)Nc1ccc(CC(=O)Nc2cc3c(cc2Cl)N(C)C(=O)CN(CCC(=O)O)C3=O)cc1", "VLA-4 (Homo sapiens, UniProt P05556+P13612)", 6.19),
    ("COC(=O)C(C(C)C)N1C(=O)CN(CCC(=O)O)C(=O)c2cc(NC(=O)Cc3ccc(NC(=O)Nc4ccccc4C)cc3)ccc21 (stereo not drawn)", "VLA-4 (Homo sapiens, UniProt P05556+P13612)", 7.12),
]

###

IC50 by entry:
target: VLA-4 (Homo sapiens, UniProt P05556+P13612); construct: endogenous in cells; assay: VLA-4 direct binding assay (VCAM-IgG alkaline phosphatase conjugate binding to Jurkat cells); conditions: Table 1, Structure-Activity; assay and unit inferred; read-out: Act

# Compound, IC50
measured = [
    ("Cc1ccccc1NC(=O)Nc1ccc(NC(=O)Cc2ccc3c(c2)C(=O)N(CCC(=O)O)CC(=O)N3C)cc1", "0.886 µM"),
    ("Cc1ccccc1NC(=O)Nc1ccc(NC(=O)C2CC2C(=O)N[C@@H](CC(=O)O)c2ccc3c(c2)OCO3)cc1 (stereo partly shown)", "0.81 µM"),
    ("O=C(O)CCNC(=O)[C@@H]1CCCN(C(=O)Cc2ccc(NC(=O)Nc3ccccc3)cc2)C1", "0.872 µM"),
    ("COc1ccc([C@H](CC(=O)O)NC(=O)C(CC(=O)Nc2ccc(NC(=O)NS(=O)(=O)c3ccccc3C)cc2)CC(C)C)cc1OC (stereo partly shown)", "0.298 µM"),
    ("Cc1ccccc1NC(=O)Nc1ccc(NC(=O)[C@@H]2CCCN2C(=O)NCCCC(=O)O)cc1", "8.94 µM"),
    ("CSCCCN(CC(=O)Nc1ccccc1)C(=O)CN(CCC(=O)O)C(=O)c1ccccc1", "13.5 µM"),
    ("Cc1ccccc1NC(=O)Nc1ccc(NC(=O)[C@@H]2CSCN2C(=O)CCCCC(=O)O)cc1", "0.0635 µM"),
    ("Cc1ccccc1NC(=O)Nc1ccc(CC(=O)N(C)c2ccc3c(c2)C(=O)N(CCC(=O)O)CC(=O)N3C)cc1", "3.24 µM"),
    ("Cc1ccccc1NC(=O)Nc1ccc(CNC(=O)C(CC(=O)NC(CC(=O)O)c2ccc3c(c2)OCO3)CC(C)C)cc1 (stereo not shown)", "0.5 µM"),
    ("Cc1ccccc1NC(=O)Nc1ccc(CC(=O)Nc2ccccc2OCCC(=O)O)cc1", "4.5 µM"),
    ("Cc1ccccc1NC(=O)Nc1ccc(CC(=O)NCc2cccc(OCC(=O)O)c2)cc1", "1.14 µM"),
    ("Cc1ccccc1NC(=O)Nc1ccc(CC(=O)Nc2ccc3c(c2)C(=O)N(CCC(=O)O)CC(=O)N3Cc2ccc(F)cc2)cc1", "0.166 µM"),
    ("C=CC[C@H](CC(=O)O)NC(=O)C(C)CC(=O)Nc1ccc(NC(=O)Nc2ccccc2C)cc1 (stereo partly shown)", "0.0585 µM"),
    ("COc1ccc([C@H](CC(=O)O)NC(=O)C(CC(=O)Nc2ccc(COCc3ccccc3)cc2)CC(C)C)cc1OC (stereo partly shown)", "0.7 µM"),
    ("COc1cccc(C(=O)N(CCC(=O)O)CC(=O)N(CCC(C)C)CC(=O)Nc2ccccc2)c1", "1.4 µM"),
    ("Cc1ccccc1NC(=O)Nc1ccc(CC(=O)Nc2ccc3c(c2)C(=O)N(CCC(=O)O)CC(=O)N3C)cc1", "0.257 µM"),
]
